Hey, just so you know, these numbers are from PubChem BioAssay AID709.

test: intrinsic fluorescence of library compounds, ex339/em460 – biochemical, MLSMR library, data from DPM-DC assay, artefact control, profiling panel (AID 709); conditions: compound autofluorescence, ex339/em460 nm, NADH buffer; at 10 µM; hits give high values; 1 = no-compound wells, NADH background;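 further: signal is the first read of a kinetic run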
The campaign covered roughly 65,000 compounds. About 3,600 (5.5%) were called active. What follows is part of a selection rich in actives, with near analogues and random picks from the rest.
readout-label: fluorescence fold increase
Could you keep your reply to the number by itself?

{"molecule": "CCc1ccc2oc(=O)cc(CN3CCCCC3C)c2c1 (configuration not stated)", "fluorescence fold increase": 1.11}
{"molecule": "CC(C)Cn1c(N)c(C(=O)NCc2cccs2)c2nc3ccccc3nc21", "fluorescence fold increase": 3.03}
{"molecule": "CCOC(=O)N1CCN(Cc2oc(CO)cc(=O)c2O)CC1", "fluorescence fold increase": 1.04}
{"molecule": "COC(=O)c1cn(CC(=O)NCc2cccs2)c2ccccc12", "fluorescence fold increase": 1.12}
{"molecule": "CCCCNc1nc2ccccc2nc1NS(=O)(=O)c1cccs1", "fluorescence fold increase": 1.35}

Switching to the query record.
Problem: Specify fluorescence fold increase for `CCN(CC(=O)NCc1cccs1)c1nnnn1-c1ccccc1` and stop.
Result: 1.04

----------
Entries and their fluorescence fold increase
assay: intrinsic fluorescence of library compounds, ex339/em460 – biochemical, MLSMR library, data from DPM-DC assay, artefact control, profiling panel (AID 709); settings: compound autofluorescence, ex339/em460 nm, NADH buffer; at 10 µM; hits give high values; 1 = no-compound wells, NADH background;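 further: signal is the first read of a kinetic run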
The whole screen tested about 65,000 compounds, of which about 3,600 (5.5%) were called active. What follows is part of a selection rich in actives, with near analogues and random picks from the rest.

// below: answered compounds
{"compound": "CN1C(=O)c2ccc(NC(=O)c3c(F)c(F)c(F)c(F)c3F)cc2C1=O", "fluorescence fold increase": "2.11 (active)"}
{"compound": "CCCCc1nccn1CCn1ccnc1CCCC", "fluorescence fold increase": "1.03 (inactive)"}
{"compound": "COc1cccc(C(=O)c2cc3ccc(O)cc3oc2=O)c1", "fluorescence fold increase": "1.05 (inactive)"}
{"compound": "CC(C)n1c(C(O)c2ccccc2)nc2ccccc21 (stereo unspecified)", "fluorescence fold increase": "1.13 (inactive)"}
{"compound": "O=c1oc2cc(O)ccc2cc1-c1ccc(F)cc1", "fluorescence fold increase": "3.81 (active)"}
{"compound": "COC(=O)C(CC(=O)Nc1cc(C)ccc1C)Nc1ccccc1OC (stereo unspecified)", "fluorescence fold increase": "1.02 (inactive)"}
{"compound": "Cc1cccc(N2CCN(Cc3c(C)n(C)n(-c4ccccc4)c3=O)CC2)c1C", "fluorescence fold increase": "1.01 (inactive)"}
{"compound": "CCCC(=O)Nc1cc(OCC)c(NC(=O)NC2CCCCC2)cc1OCC", "fluorescence fold increase": "1.11 (inactive)"}
{"compound": "COCCCn1c(CCC(=O)O)ccc1-c1ccc(F)cc1", "fluorescence fold increase": "3.84 (active)"}
{"compound": "CCOc1ccc(N(CC(=O)OC)S(=O)(=O)c2c(C)noc2C)cc1", "fluorescence fold increase": "1.1 (inactive)"}

Problem: Check the records and state fluorescence fold increase for CCOc1ccc(CNC(=O)C2CCC(=O)N2C2CCCC2)cc1OC (stereo unspecified)
Result: 1.07 (inactive)

Problem: Identify fluorescence fold increase associated with the compound `CN(C)c1nc2n(c(=O)n1)CCO2`
Result: 1.07 (inactive)

Problem: Indicate its recorded fluorescence fold increase; the compound in question is CCN1CCCC1CNc1ncnc2c1[nH]c1ccc(F)cc12 (stereo unspecified)
Result: 3.05 (active)

Problem: Note fluorescence fold increase for the compound shown: COC(=O)C(NC(C)=O)(Nc1nc2c(s1)CCCC2)C(F)(F)F (stereo unspecified)
Result: 1.04 (inactive)

Problem: Answer with the recorded fluorescence fold increase of `Cc1ccc(-n2nc3cc(Cl)c(NC(=O)c4ccco4)cc3n2)cc1` only.
Result: 1.84 (inactive)

Problem: Item `O=C(O)c1ccc(NC(=O)C2CCCCC2)cc1` : provide fluorescence fold increase
Result: 1.11 (inactive)

Problem: Give reported fluorescence fold increase value for `COc1ccc(-n2nnc3c(=O)n(CC(=O)N4CCC(Cc5ccccc5)CC4)cnc32)cc1`
Result: 1.08 (inactive)

Problem: Determine its reported fluorescence fold increase: `Cc1cc(=O)[nH]c(SCC(N)=O)c1C#N`
Result: 1.12 (inactive)

Problem: Give the value of fluorescence fold increase reported for the following: `C=CCn1c(=S)[nH]c2nc3c(cc2c1=O)COC(C)(C)C3`
Result: 1.03 (inactive)

Problem: State, in one line, measured fluorescence fold increase of `O=C(Nc1cnn(Cc2ccc(Cl)cc2)c1)C1CCCC1`
Result: 1.03 (inactive)

Problem: Item `CCOC(=O)CCc1c(C)c2ccc(OCc3nn[nH]n3)c(C)c2oc1=O` : provide fluorescence fold increase
Result: 3.81 (active)

Problem: Please give the documented fluorescence fold increase of `CCCCOc1ccccc1/C=c1/sc2nc(-c3oc4ccccc4c3C)nn2c1=O`
Result: 1.1 (inactive)
